# Lookup of reported pEC50 keyed by entry
tested on: HIV-1 (IIIB) in MT-4 cells; experiment: HIV MT-4 antiviral assay; type: cell-based; conditions: Human immunodeficiency virus 1, MT4, 120 h, 5 days, Cell Titer Glo
Field pEC50 (float): negative decimal logarithm of the concentration in molar.

Illustrative cases are given below, each with its answer.
CC[C@]1(O)CC[C@H](C)N2C[C@H]1n1cc(C(=O)NCc3c(F)cc(F)cc3F)c(=O)c(O)c1C2=O    8.39
CO[C@H]1C[C@@H](F)[C@H](C)N2C[C@H]1n1cc(C(=O)NCc3c(F)cc(F)cc3F)c(=O)c(O)c1C2=O    8.82
C[C@H]1CC[C@@](C)(O)[C@H]2CN1C(=O)c1c(O)c(=O)c(C(=O)NCc3c(F)cc(F)cc3F)cn12 (single isomer, unassigned)    8.72
[2H]C([2H])([2H])[C@]1(O)C=C[C@H](C)N2C[C@H]1n1cc(C(=O)NCc3c(F)cc(F)cc3F)c(=O)c(O)c1C2=O    8.70
C[C@H]1CC[C@H](O)[C@H]2CN1C(=O)c1c(O)c(=O)c(C(=O)NCc3ccc(F)cc3F)cn12    8.59

Missing value: pEC50, HIV-1 (IIIB) in MT-4 cells, entry `[2H]C([2H])([2H])[C@]1(O)CC[C@H](C)N2C[C@H]1n1cc(C(=O)NCc3ccc(F)cc3F)c(=O)c(O)c1C2=O` . Fill in?
8.68

Missing value: pEC50, HIV-1 (IIIB) in MT-4 cells, entry `[2H]C([2H])([2H])[C@]1(O)C=C[C@H](C)N2C[C@H]1n1cc(C(=O)NCc3ccc(F)cc3F)c(=O)c(O)c1C2=O` . Fill in?
8.68

Hi! What's the reported pEC50 for `C[C@H]1[C@H]2CO[C@H](C2)[C@H]2CN1C(=O)c1c(O)c(=O)c(C(=O)NCc3ccc(F)cc3F)cn12` on HIV-1 (IIIB) in MT-4 cells?
8.72

Form field: pEC50 recorded for C[C@@H]1CC[C@](C)(O)[C@H]2CN1C(=O)c1c(O)c(=O)c(C(=O)NCc3ccc(F)cc3F)cn12 (single isomer, unassigned) with HIV-1 (IIIB) in MT-4 cells (enter value)
8.49

Enter reported pEC50 observed with HIV-1 (IIIB) in MT-4 cells for `C[C@H]1CC[C@@](O)(CF)[C@H]2CN1C(=O)c1c(O)c(=O)c(C(=O)NCc3c(F)cc(F)cc3F)cn12`
8.40

Recall the recorded pEC50 for `CO[C@@H]1C[C@H](F)[C@H](C)N2C[C@H]1n1cc(C(=O)NCc3c(F)cc(F)cc3F)c(=O)c(O)c1C2=O` with HIV-1 (IIIB) in MT-4 cells and state it.
8.85

Form field - read-out: pEC50; system: HIV-1 (IIIB) in MT-4 cells; submitted item: `CO[C@H]1CC[C@H](CF)N2C[C@H]1n1cc(C(=O)NCc3ccc(F)cc3F)c(=O)c(O)c1C2=O`
8.77
